Where do these numbers come from? They come from patent US20050209278A1.

# TARGET_SYSTEM: MMP-2 (Homo sapiens, UniProt P08253)
# Construct: made in house; host or cells: MMP-2-transfected p2AHT2 cells
# Sequence (P08253 110-660): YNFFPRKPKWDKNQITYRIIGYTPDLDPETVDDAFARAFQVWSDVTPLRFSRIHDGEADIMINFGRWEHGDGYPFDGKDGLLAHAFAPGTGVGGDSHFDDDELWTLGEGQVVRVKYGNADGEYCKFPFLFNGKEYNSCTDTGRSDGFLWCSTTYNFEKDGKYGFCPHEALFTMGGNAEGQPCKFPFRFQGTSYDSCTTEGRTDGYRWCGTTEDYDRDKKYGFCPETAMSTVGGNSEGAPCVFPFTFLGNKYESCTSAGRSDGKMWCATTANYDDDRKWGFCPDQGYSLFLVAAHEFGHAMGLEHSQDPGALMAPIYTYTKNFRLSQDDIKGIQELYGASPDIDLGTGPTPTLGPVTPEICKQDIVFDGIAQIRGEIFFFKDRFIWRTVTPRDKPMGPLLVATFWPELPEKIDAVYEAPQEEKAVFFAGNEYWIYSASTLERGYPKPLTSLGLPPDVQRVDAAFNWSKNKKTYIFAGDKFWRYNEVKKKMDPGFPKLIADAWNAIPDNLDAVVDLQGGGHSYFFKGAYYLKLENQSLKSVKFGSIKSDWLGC
# RUN_DESCRIPTION: In vitro MMP inhibition, Ki determination (fluorogenic substrate II)
# Assay type: biochemical
# TEST_PARAMETERS: value outside parentheses; read-out: MMP-2 Ki
# Protocol: Several hydroxamic acids and salts thereof were analyzed in in vitro assays to determine their ability to inhibit the MMP cleavage of peptide substrates. […] and IC50 constants were calculated from the assayed hydroxamic acid-MMP interactions. […] The assays from which the Ki determinations were made were performed as follows. […] In the absence of MMP inhibitory activity, substrate II was cleaved at the Gly-Leu bond resulting in an increase of relative fluorescence. […]
pKi: −log10 of the molar value.
PROPERTY_LABEL: pKi

Below are worked cases with known answers.
> print(dat)
                            chemical.smiles  property.label  recorded.number
1  O=C(NO)C1(S(=O)(=O)N2CCC(c3ccc(OC(F)(F)C(F)(F)F)cc3)CC2)CCOCC1             pKi             8.67
2  O=C(NO)C1(S(=O)(=O)N2CCC(COCc3ccccc3)CC2)CCOCC1             pKi             8.21
3  CCCCOc1ccc(N2CCN(S(=O)(=O)C3(C(=O)NO)CCN(C(=O)C(C)(C)C)CC3)CC2)cc1             pKi             9.08
4  COc1ccc(-c2cnc(N3CCN(S(=O)(=O)C4(C(=O)NO)CCOCC4)CC3)s2)cc1OC             pKi             8.38
5  CCCC#Cc1cnc(N2CCN(S(=O)(=O)C3(C(=O)NO)CCOCC3)CC2)s1             pKi             9.15
6  CCCCOc1ccc(N2CCN(S(=O)(=O)C3(C(=O)NO)CCN(C)CC3)CC2)cc1             pKi             8.56

(P) O=C(NO)C1(S(=O)(=O)N2CCN(c3ccc(CCCC(F)(F)F)c(F)c3)CC2)CCOCC1
(Q) CCc1ccc(-c2cnc(N3CCN(S(=O)(=O)C4(C(=O)NO)CCOCC4)CC3)s2)cc1
Req: Between item P and item Q , which reported pKi is smaller? Identify your selection by its label.
Resp: P
(P: 9.42, Q: 9.68)

----------
# TARGET_SYSTEM: MMP-9 (Homo sapiens, UniProt P14780)
# Construct: made in house; host or cells: MMP-9-transfected HT1080 cells (spent media)
# Sequence (P14780 107-707 limits assumed): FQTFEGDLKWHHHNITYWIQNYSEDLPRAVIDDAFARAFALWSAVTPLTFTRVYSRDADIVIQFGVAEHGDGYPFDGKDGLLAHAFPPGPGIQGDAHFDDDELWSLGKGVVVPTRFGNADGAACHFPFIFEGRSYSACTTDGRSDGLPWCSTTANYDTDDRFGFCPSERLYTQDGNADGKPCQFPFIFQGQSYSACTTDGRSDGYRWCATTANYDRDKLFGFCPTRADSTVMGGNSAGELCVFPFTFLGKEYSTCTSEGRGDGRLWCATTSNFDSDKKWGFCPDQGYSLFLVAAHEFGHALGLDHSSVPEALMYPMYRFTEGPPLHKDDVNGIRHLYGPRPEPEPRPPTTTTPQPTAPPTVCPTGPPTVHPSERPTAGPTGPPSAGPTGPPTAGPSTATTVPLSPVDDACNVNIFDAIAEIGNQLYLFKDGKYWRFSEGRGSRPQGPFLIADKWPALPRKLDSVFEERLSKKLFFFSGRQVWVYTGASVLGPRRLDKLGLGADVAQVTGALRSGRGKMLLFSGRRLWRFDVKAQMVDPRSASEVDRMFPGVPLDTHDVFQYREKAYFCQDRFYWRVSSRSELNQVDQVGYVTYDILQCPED
# RUN_DESCRIPTION: In vitro MMP inhibition, Ki determination (fluorogenic substrate II)
# Type: biochemical
# TEST_PARAMETERS: value outside parentheses
PROPERTY_LABEL: Ki (nM)

Known Ki results, listed for orientation:
> print(dat)
                            chemical.smiles  property.label  recorded.number
1  COCCN1CCC(C(=O)NO)(S(=O)(=O)N2CCN(c3ccc(Oc4ccccc4)cc3)CC2)CC1              Ki             13.9
2  CCCCOc1ccc(N2CCN(S(=O)(=O)C3(C(=O)NO)CCN(c4ccc(C(F)(F)F)cn4)CC3)CC2)cc1              Ki               37

(a) CCCCOc1ccc(N2CCN(S(=O)(=O)C3(C(=O)NO)CCN(C(=O)CN)CC3)CC2)cc1
(b) O=C(NO)C1(S(=O)(=O)N2CCN(c3ncc(-c4ccc(F)cc4F)s3)CC2)CCOCC1
Req: Kindly compare a with b and tell me which has the lower Ki figure. In your reply, give the label of the chosen option.
Resp: b
(b: 1.21 nM, a: 3.51 nM)

----------
# TARGET_SYSTEM: MMP-9 (Homo sapiens)
# Construct: made in house; host or cells: MMP-9-transfected HT1080 cells (spent media)
# RUN_DESCRIPTION: In vitro MMP inhibition, Ki determination (fluorogenic substrate II)
# Format: biochemical
# TEST_PARAMETERS: value not in parenthesis
pKi: −log10 of the molar value.
PROPERTY_LABEL: pKi

> print(dat)
                            chemical.smiles  recorded.number
1  O=C(NO)C1(S(=O)(=O)N2CCN(c3ccc(OC(F)(F)F)cc3)CC2)CCN(C2CC2)CC1             8.60

(I) CCCCOc1ccc(N2CCN(S(=O)(=O)C3(C(=O)NO)CCN(C(=O)N(C(C)C)C(C)C)CC3)CC2)cc1
(II) CCCCOc1ccc(N2CCN(S(=O)(=O)C3(C(=O)NO)CCN(c4cccnc4)CC3)CC2)cc1
(III) CCCCOc1ccc(N2CCN(S(=O)(=O)C3(C(=O)NO)CCN(c4ccsc4)CC3)CC2)cc1
Req: Output the entries ranked by pKi from maximum down to minimum. Please respond with the labels ordered as the question requires.
Resp: II, I, III
(II: 8.67, I: 8.41, III: 7.18)

----------
# TARGET_SYSTEM: MMP-9 (Homo sapiens, UniProt P14780)
# Construct: made in house; host or cells: MMP-9-transfected HT1080 cells (spent media)
# RUN_DESCRIPTION: In vitro MMP inhibition, Ki determination (fluorogenic substrate II)
# Format: biochemical
# TEST_PARAMETERS: value outside parentheses
PROPERTY_LABEL: Ki (nM)

Solved cases (5 shown):
> print(dat)
                            chemical.smiles                         target.system  recorded.number
1  O=C(NO)C1(S(=O)(=O)N2CCN(c3ncc(-c4ccc(-c5ccccc5)cc4)s3)CC2)CCOCC1  MMP-9 (Homo sapiens, UniProt P14780)             6.28
2  CCCCOc1ccc(N2CCN(S(=O)(=O)C3(C(=O)NO)CCNCC3)CC2)cc1  MMP-9 (Homo sapiens, UniProt P14780)             9.39
3  CCCCOc1ccc(N2CCN(S(=O)(=O)C3(C(=O)NO)CCN(c4ccc(C)cc4)CC3)CC2)cc1  MMP-9 (Homo sapiens, UniProt P14780)             17.1
4  CCCCOc1ccc(N2CCN(S(=O)(=O)C3(C(=O)NO)CCN(C(C)=O)CC3)CC2)cc1  MMP-9 (Homo sapiens, UniProt P14780)            0.098
5  O=C(NO)C1(S(=O)(=O)N2CCC(N3CCN(c4ccc(Cl)cc4)CC3)CC2)CCOCC1  MMP-9 (Homo sapiens, UniProt P14780)             4960

(1) CCCCc1ccc(-c2cnc(N3CCN(S(=O)(=O)C4(C(=O)NO)CCOCC4)CC3)s2)cc1
(2) O=C(NO)C1(S(=O)(=O)N2CCN(c3ncc(-c4ccc(O)cc4)s3)CC2)CCOCC1
(3) CCCCOc1ccc(N2CCN(S(=O)(=O)C3(C(=O)NO)CCN(C(=O)CC)CC3)CC2)cc1
(4) O=C(NO)C1(S(=O)(=O)N2CCN(c3ccc(-c4cccc(OC(F)(F)F)c4)cn3)CC2)CCOCC1
(5) O=C(NO)C1(S(=O)(=O)N2CCC(c3ccc(CCC(F)(F)F)cn3)CC2)CCOCC1
Req: Endpoint returns the given compounds ordered by ascending Ki. Reply: labels, ordered per the request.
Resp: 2, 5, 3, 1, 4

(I) O=C(NO)C1(S(=O)(=O)N2CCN(c3ncc(-c4ccc(F)cc4)s3)CC2)CCOCC1
(II) O=C(NO)C1(S(=O)(=O)N2CCN(c3ncc(-c4ccc5c(c4)OCO5)s3)CC2)CCOCC1
Req: Consider entries I and II . Which has the numerically lower Ki? Answer by stating the label of the chosen item.
Resp: I
